Data origin, for the record: paper PMC4405178

Study target: T1, full-length Ste2p L211R (Saccharomyces cerevisiae, UniProt D6VTK4 1-431, L211R)
T1 sequence (looked up): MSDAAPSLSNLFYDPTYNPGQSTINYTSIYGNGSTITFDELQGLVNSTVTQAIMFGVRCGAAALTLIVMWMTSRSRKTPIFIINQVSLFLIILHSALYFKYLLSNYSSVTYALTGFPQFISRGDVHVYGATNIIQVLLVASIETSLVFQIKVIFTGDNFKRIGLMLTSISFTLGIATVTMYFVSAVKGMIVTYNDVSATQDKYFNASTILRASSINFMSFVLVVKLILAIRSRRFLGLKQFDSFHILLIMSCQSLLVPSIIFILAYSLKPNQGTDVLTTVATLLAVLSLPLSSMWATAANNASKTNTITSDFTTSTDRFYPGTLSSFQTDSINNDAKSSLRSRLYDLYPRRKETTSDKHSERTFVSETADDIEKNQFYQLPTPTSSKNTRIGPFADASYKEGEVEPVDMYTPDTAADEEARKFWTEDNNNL
Assay procedure: flow cytometry on cells
Measurement kind: pKd
Quick note: pKd means taking -log10 of the concentration in moles per liter.

-- ask Dear colleague, I am looking for the recorded pKd of the following binder: WHWLQLKPGQPMY (NBD (7-nitrobenz-2-oxa-1,3-diazol-4-yl) conjugated to the lysine at position 7; norleucine at position 12 in place of methionine) [[K^7(NBD),Nle^12] α-factor]
-- reply 9.10
